Test system: MDA-MB-435
Assay comment: NCI tumour cell line growth inhibition, 48 h
Item-by-item account of TGI
Observable: TGI

[
  {
    "Compound": "O=C(O)CCCC(=O)Nn1c(Cc2ccc(Cl)cc2)n[nH]c1=O",
    "Result": "> 100 µM"
  },
  {
    "Compound": "COc1c(CC=C(C)C)c(O)c(C(CC(C)C)c2c(O)c3c(c(C(C)=O)c2O)OC(C(C)(C)O)C3)c(O)c1C(C)=O (stereo unspecified)",
    "Result": "> 12.5 µM"
  },
  {
    "Compound": "COC(=O)C1CCC(=O)N1CN(C(C)=O)c1ccccc1Cl (stereo unspecified)",
    "Result": "> 100 µM"
  },
  {
    "Compound": "CN(C)CCCN1C(=S)N(CCCN(C)C)c2c3ccccc3nc3c([N+](=O)[O-])ccc1c23",
    "Result": "23.7 µM"
  },
  {
    "Compound": "O=C(Cc1ccc(/C=C/C(=O)c2ncc[nH]2)cc1)Nc1ccc(F)cc1",
    "Result": "20.1 µM"
  },
  {
    "Compound": "O=C(Oc1cccc2cccnc12)c1cc2c(cc1Cl)SC(N(c1ccc(F)cc1)S(=O)(=O)c1ccc(Br)s1)=NS2(=O)=O",
    "Result": "> 100 µM"
  },
  {
    "Compound": "CC1=CC(=O)C2=C(C)CCC3C(C)C(=O)OC3C12 (stereo unspecified)",
    "Result": "> 100 µM"
  },
  {
    "Compound": "Oc1ccc(O)c(CNc2ccc(C(O)C(F)(F)F)cc2)c1 (stereo unspecified)",
    "Result": "47.4 µM"
  },
  {
    "Compound": "OC(c1ccccc1)(c1ccccc1)c1nccc2ccccc12",
    "Result": "> 100 µM"
  },
  {
    "Compound": "COc1ccc(/C=C/C(=O)c2cc(OC)c(OC)c(OC)c2)cc1OCC(=O)Nc1nc2ccc(OC(F)(F)F)cc2s1",
    "Result": "1.08 µM"
  },
  {
    "Compound": "O=c1[nH]c2ccccc2c2ccccc12",
    "Result": "> 100 µM"
  },
  {
    "Compound": "CC(=O)C1=C(C)N2C(=NC3=C(CCc4ccccc43)C2c2ccc(F)cc2)S1 (stereo unspecified)",
    "Result": "> 100 µM"
  },
  {
    "Compound": "C=C1C(=O)O[C@H]2C/C(C)=C/CC[C@@]3(C)O[C@](C)(CC[C@@H]3I)[C@@H](I)C[C@@H]12",
    "Result": "11.7 µM"
  },
  {
    "Compound": "Cc1cc(S(=O)(=O)Nc2n[nH]c(Nc3ccc(Cl)cc3)n2)c(S)cc1Cl",
    "Result": "> 100 µM"
  },
  {
    "Compound": "CC(NC(=O)/C(=C/c1ccccc1)NC(=O)c1ccccc1)C(=O)O (stereo unspecified)",
    "Result": "> 100 µM"
  },
  {
    "Compound": "CC(N)C(Cc1ccc(Cl)cc1)c1ccc(Cl)cc1 (stereo unspecified)",
    "Result": "20.7 µM"
  },
  {
    "Compound": "COc1ccc(C2CC(c3cccc(Nc4ccnc5cc(Cl)ccc45)c3)=NN2C=O)cc1 (stereo unspecified)",
    "Result": "0.809 µM"
  },
  {
    "Compound": "N#Cc1cc(C#N)c(N)nc1N",
    "Result": "> 100 µM"
  },
  {
    "Compound": "COC(=O)c1n[nH]c(C)c1N=NN(C)CCC#N",
    "Result": "> 100 µM"
  },
  {
    "Compound": "COc1cc(/C=C\\c2cc(OC)c(OC)c(OC)c2)cc(N/C=C\\C(=O)c2ccc(OC(F)(F)F)cc2)c1OC",
    "Result": "5.52 µM"
  },
  {
    "Compound": "Nc1ccc2c(O)cc(=O)[nH]c2n1",
    "Result": "> 100 µM"
  },
  {
    "Compound": "CN(C)c1ccc(C=Nc2ccc(-c3nc4ccccc4[nH]3)cc2)cc1",
    "Result": "> 100 µM"
  },
  {
    "Compound": "COC(=O)/C=C1\\C(=O)N(C(C)=O)c2ccc(Br)cc21",
    "Result": "22 µM"
  },
  {
    "Compound": "O=c1[nH]c(Nc2ccc(Cl)c(C(F)(F)F)c2)nc2nc[nH]c12",
    "Result": "> 100 µM"
  },
  {
    "Compound": "O=c1[nH]c2nnc(COc3ccc(Cl)cc3Cl)n2nc1Cc1ccccc1",
    "Result": "> 100 µM"
  },
  {
    "Compound": "O=C1CSC(/C=C/c2ccccc2)N1c1nc2cc3sc(N4C(=O)CSC4/C=C/c4ccccc4)nc3cc2s1 (stereo unspecified)",
    "Result": "> 100 µM"
  },
  {
    "Compound": "COc1ccc(C2=N[C@@H](Cc3ccccc3)C(=O)Nc3ccsc32)cc1",
    "Result": "4 µM"
  },
  {
    "Compound": "CC(C)(Br)C(=O)N1CCN(C(c2ccccc2)c2ccccc2)CC1",
    "Result": "> 100 µM"
  },
  {
    "Compound": "C=CCn1c(-c2ccc([N+](=O)[O-])cc2)cs/c1=N\\C(P(=O)(O)O)P(=O)(O)O",
    "Result": "> 100 µM"
  },
  {
    "Compound": "COc1ccc2c(c1)/C(=C\\c1c(-c3cc(OC)ccc3OC)nc3sc(C)cn13)C(=O)N2C",
    "Result": "79.9 µM"
  },
  {
    "Compound": "O=C1C[C@H](c2ccccc2)O[C@@H](c2ccccc2)C1",
    "Result": "> 100 µM"
  }
]
